From: ChEMBL document CHEMBL1140398

molecular target: Mitogen-activated protein kinase 14 (Homo sapiens); assay: Inhibitory concentration against p38 cytoplasmic sequence; Reported as mean (variability <15%)
Sequence (Q16539 whole entry): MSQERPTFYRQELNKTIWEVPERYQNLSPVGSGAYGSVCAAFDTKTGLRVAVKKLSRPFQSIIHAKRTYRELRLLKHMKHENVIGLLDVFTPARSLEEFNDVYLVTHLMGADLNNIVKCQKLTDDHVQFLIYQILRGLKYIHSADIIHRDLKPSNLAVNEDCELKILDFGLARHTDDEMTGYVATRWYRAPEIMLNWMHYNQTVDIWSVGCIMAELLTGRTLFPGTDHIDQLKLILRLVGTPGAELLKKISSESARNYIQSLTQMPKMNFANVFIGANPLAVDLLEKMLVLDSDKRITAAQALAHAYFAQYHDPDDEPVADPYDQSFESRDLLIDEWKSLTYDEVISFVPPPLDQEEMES
experimental endpoint: IC50

Reported IC50, molecule CCc1c(NC(=O)OCCn2ccnc2)cn2ncnc(Nc3ccc4c(cnn4Cc4ccccc4)c3)c12 : ____
> 25 µM

---

Values of log10 of IC50 reported for Receptor tyrosine-protein kinase erbB-2 (Homo sapiens, UniProt P04626) appear below.
Scale type: logarithmic (base 10). Underlying IC50 unit: nM.

Solved cases (4 shown):
CCc1c(NC(=O)OCc2ccccc2)cn2ncnc(Nc3ccc4c(cnn4Cc4ccccc4)c3)c12 = 2.23
CCc1c(C(=O)O)cn2ncnc(Nc3ccc4c(cnn4Cc4ccccc4)c3)c12 = 1.60
CCOCc1cn2ncnc(Nc3ccc4c(cnn4Cc4ccccc4)c3)c2c1CC = 3.15
CCOC(=O)c1cn2ncnc(Nc3ccc4c(cnn4Cc4ccccc4)c3)c2c1C(C)C = 2.32

Kindly consider the entry below.
Reported log10 of IC50, molecule CCOC(=O)c1cn2ncnc(Nc3ccc(Oc4ccccc4)cc3)c2c1CC : ____
2.91

---

target: Focal adhesion kinase 1 (Homo sapiens, UniProt Q05397)
Sequence (Q05397 whole entry): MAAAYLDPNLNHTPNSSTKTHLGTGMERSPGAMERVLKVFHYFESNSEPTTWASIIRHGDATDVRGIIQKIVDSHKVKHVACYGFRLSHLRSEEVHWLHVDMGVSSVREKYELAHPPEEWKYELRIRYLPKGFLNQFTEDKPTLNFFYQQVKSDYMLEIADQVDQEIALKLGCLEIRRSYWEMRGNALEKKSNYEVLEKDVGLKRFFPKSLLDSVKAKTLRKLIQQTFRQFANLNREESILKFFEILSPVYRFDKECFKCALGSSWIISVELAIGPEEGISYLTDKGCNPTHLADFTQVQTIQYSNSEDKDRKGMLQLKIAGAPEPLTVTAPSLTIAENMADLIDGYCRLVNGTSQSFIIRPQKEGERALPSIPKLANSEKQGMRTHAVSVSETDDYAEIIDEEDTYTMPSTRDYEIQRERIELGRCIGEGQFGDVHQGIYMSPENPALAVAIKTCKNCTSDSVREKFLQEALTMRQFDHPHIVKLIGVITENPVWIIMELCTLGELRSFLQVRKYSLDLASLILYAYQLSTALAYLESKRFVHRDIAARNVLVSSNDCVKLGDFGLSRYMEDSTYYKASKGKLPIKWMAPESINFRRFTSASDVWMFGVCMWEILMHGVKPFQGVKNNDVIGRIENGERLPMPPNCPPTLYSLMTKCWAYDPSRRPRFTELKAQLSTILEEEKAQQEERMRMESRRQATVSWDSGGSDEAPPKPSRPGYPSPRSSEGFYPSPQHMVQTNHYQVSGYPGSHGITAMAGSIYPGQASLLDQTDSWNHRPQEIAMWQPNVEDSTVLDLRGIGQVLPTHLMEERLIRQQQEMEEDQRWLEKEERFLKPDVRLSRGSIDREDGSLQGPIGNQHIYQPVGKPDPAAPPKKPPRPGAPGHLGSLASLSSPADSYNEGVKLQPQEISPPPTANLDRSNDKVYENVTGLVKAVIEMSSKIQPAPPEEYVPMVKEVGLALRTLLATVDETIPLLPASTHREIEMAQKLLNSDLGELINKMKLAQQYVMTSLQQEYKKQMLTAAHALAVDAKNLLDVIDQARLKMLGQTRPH
pIC50: −log10 of the molar value.
experimental endpoint: pIC50

Please provide the recorded pIC50 for CCc1c(NC(=O)OCCn2ccnc2)cn2ncnc(Nc3ccc4c(cnn4Cc4ccccc4)c3)c12 , tested on Focal adhesion kinase 1 (Homo sapiens, UniProt Q05397).
< 4.60

---

Values of IC50 reported for Receptor tyrosine-protein kinase erbB-2 (Homo sapiens, UniProt P04626) appear below.
Report as: number unit

CCc1c(NC(=O)OCCn2ccnc2)cn2ncnc(Nc3ccc4c(cnn4Cc4ccccc4)c3)c12 = 0.04 µM

Batch request: IC50 for each of the following compounds.
1. CCOC(=O)c1cn2ncnc(Nc3ccc4[nH]ncc4c3)c2c1CC
2. CCc1c(C(=O)NCCCn2ccnc2)cn2ncnc(Nc3ccc4c(cnn4Cc4ccccc4)c3)c12
3. CCOC(=O)c1cn2ncnc(Nc3cccc(Br)c3)c2c1CC

["3.3 µM", "0.03 µM", "3 µM"]

Batch request: IC50 for each of the following compounds.
1. CCc1c(CO)cn2ncnc(Nc3ccc4c(cnn4Cc4ccccc4)c3)c12
2. CCOC(=O)c1cn2ncnc(NCc3ccccc3)c2c1CC

1: 0.73 µM; 2: 7.2 µM

---

molecular target: Hepatocyte growth factor receptor (Homo sapiens, UniProt P08581)
Sequence (P08581 whole entry): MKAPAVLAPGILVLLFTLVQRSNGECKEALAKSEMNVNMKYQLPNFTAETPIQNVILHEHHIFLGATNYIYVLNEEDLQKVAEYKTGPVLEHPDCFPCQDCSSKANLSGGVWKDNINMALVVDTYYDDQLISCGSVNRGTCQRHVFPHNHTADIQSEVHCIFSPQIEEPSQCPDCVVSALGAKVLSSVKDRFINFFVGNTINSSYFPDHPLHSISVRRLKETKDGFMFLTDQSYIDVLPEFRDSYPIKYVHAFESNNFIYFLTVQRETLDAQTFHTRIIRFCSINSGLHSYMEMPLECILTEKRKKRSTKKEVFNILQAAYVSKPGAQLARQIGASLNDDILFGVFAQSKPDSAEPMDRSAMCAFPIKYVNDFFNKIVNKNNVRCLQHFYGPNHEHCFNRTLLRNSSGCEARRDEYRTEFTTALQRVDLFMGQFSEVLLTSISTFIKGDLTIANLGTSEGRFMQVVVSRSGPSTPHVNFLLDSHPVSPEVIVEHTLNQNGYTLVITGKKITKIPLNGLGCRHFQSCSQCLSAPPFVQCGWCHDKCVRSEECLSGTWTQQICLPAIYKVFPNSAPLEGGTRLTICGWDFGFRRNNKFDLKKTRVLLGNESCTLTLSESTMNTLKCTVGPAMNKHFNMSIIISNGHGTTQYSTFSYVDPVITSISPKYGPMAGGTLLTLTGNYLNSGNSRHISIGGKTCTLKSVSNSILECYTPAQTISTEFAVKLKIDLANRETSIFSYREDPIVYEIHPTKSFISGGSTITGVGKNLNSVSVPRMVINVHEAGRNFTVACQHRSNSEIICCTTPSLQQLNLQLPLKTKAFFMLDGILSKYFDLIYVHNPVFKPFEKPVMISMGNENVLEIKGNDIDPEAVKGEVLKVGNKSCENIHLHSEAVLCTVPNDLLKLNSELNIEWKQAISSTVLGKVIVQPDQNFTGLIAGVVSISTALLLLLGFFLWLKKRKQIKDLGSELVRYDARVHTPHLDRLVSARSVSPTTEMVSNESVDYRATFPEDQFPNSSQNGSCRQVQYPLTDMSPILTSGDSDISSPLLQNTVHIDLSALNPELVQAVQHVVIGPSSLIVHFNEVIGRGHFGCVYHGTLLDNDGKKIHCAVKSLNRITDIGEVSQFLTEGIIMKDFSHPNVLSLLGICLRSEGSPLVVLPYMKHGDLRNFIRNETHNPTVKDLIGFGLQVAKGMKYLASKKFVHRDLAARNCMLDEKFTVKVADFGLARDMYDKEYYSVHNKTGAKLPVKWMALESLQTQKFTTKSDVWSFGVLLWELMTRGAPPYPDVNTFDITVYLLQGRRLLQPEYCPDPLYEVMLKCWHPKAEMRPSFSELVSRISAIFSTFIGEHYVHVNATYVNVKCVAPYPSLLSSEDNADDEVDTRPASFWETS
pIC50: −log10 of the molar value.
experimental endpoint: pIC50

Reported pIC50, compound CCc1c(NC(=O)OCCn2ccnc2)cn2ncnc(Nc3ccc4c(cnn4Cc4ccccc4)c3)c12 : ____
< 5.00

---

Values of IC50 reported for Receptor tyrosine-protein kinase erbB-2 (Homo sapiens) appear below.
Answers are plain numbers, in nM.

Solved cases (2 shown):
CCc1c(C(=O)OCCCn2ccnc2)cn2ncnc(Nc3ccc4c(cnn4Cc4ccccc4)c3)c12 = 240
CCOC(=O)c1cn2ncnc(Nc3ccc4c(cnn4Cc4ccccc4)c3)c2c1CC = 180

Kindly consider the entry below.
Please provide the recorded IC50 for CCNCc1cn2ncnc(Nc3ccc4c(cnn4Cc4ccccc4)c3)c2c1CC , tested on Receptor tyrosine-protein kinase erbB-2 (Homo sapiens).
Sequence (P04626 whole entry): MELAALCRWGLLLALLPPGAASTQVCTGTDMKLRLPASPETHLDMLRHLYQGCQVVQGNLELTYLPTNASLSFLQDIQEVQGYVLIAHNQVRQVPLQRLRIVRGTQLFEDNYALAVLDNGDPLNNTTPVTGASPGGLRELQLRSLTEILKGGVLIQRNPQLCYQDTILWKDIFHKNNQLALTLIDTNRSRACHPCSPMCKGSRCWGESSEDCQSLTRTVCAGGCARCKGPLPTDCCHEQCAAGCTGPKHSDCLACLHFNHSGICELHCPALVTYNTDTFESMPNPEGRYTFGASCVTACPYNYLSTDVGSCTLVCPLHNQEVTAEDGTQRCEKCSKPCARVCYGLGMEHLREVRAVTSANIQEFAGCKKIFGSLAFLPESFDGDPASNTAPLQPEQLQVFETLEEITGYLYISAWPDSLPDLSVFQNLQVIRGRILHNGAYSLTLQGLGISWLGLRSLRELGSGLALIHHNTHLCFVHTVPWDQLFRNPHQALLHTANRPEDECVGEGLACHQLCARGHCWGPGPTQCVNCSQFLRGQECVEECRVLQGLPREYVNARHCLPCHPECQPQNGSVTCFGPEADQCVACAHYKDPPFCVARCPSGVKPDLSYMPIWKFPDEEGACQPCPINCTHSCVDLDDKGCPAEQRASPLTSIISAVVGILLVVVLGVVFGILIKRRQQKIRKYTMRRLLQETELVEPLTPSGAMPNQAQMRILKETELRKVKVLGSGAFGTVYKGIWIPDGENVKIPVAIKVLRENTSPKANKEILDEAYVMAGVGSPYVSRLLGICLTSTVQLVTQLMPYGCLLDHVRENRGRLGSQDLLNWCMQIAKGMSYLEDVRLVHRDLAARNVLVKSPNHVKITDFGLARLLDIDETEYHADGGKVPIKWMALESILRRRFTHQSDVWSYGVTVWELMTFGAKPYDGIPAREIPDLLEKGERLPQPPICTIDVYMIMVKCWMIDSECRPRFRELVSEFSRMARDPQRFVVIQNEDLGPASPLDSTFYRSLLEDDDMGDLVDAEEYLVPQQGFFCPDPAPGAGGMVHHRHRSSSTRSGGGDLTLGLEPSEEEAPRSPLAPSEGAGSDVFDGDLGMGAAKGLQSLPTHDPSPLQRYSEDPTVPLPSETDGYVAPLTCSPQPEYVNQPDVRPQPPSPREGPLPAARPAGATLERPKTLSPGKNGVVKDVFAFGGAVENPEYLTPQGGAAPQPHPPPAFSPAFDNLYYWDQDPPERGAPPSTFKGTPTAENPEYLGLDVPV
9700

---

molecular target: MAP kinase-activated protein kinase 2 (Homo sapiens); assay: Inhibitory concentration against MAPKAP kinase 2 cytoplasmic sequence; Reported as mean (variability <15%)
Sequence (P49137 whole entry): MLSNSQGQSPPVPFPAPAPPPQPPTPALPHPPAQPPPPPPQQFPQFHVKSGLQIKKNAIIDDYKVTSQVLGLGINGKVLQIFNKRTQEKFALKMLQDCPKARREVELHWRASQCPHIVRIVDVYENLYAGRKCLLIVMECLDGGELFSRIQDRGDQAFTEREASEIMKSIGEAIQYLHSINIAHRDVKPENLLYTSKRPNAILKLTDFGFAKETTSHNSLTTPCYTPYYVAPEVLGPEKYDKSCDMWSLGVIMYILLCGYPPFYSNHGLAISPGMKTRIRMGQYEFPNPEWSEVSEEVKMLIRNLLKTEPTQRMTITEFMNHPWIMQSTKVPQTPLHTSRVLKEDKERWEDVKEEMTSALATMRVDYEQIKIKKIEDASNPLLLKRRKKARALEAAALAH
pIC50: −log10 of the molar value.
experimental endpoint: pIC50

Please provide the recorded pIC50 for CCc1c(NC(=O)OCCn2ccnc2)cn2ncnc(Nc3ccc4c(cnn4Cc4ccccc4)c3)c12 , tested on MAP kinase-activated protein kinase 2 (Homo sapiens).
< 4.60
